Listed below: pest or weed control at 70 g/ha values for each entry.
# Test system: Key Broadleaf Weed and Crop Species
# experiment description: Post-emergent Test II herbicidal activity (Table 15)
# Type: in vivo
# condition label: Brassica napus, post-emergence, 336 h, oilseed rape, canola (Brassica napus), 70 g ai/ha, 14 d, read-out: Visual Growth Reduction (%) 14 Days After Application, BRSNN

{"columns": ["chemical structure", "pest or weed control at 70 g/ha"],
 "data": [
  ["COC(=O)c1nc(-c2ccc3ccsc3c2)c(C)c(N)c1Cl", "0 to 29%"]
]}

Could you share which pest or weed control at 70 g/ha value was measured for Nc1c(F)c(-c2ccc3cc[nH]c3c2F)nc(C(=O)O)c1Cl ?
95 to 100%

Could you share which pest or weed control at 70 g/ha value was measured for Cc1c(-c2ccc3sccc3c2)nc(C(=O)O)c(Cl)c1N ?
60 to 74%

Could you share which pest or weed control at 70 g/ha value was measured for COC(=O)c1nc(-c2ccc(Cl)c3[nH]ccc23)cc(N)c1Cl ?
0 to 29%

Could you share which pest or weed control at 70 g/ha value was measured for COC(=O)c1nc(-c2ccc(Cl)c3ccoc23)c(F)c(N)c1Cl ?
75 to 84%

Could you share which pest or weed control at 70 g/ha value was measured for Nc1c(Cl)c(C(=O)O)nc(-c2ccc3ccsc3c2)c1Cl ?
0 to 29%

Could you share which pest or weed control at 70 g/ha value was measured for Nc1c(Cl)c(C(=O)O)nc(-c2ccc3sccc3c2)c1Cl ?
0 to 29%

====

# Tested on: Key Grass and Sedge Weeds as well as Grass Crops
# experiment description: Post-emergent Test II herbicidal activity (Table 16)
# Type: in vivo
# condition label: Cyperus esculentus, post-emergence, 336 h, yellow nutsedge (Cyperus esculentus), 70 g ai/ha, 14 d, read-out: Visual Growth Reduction (%) 14 Days After Application, CYPES
assay readout: pest or weed control at 70 g/ha

// known answers, use as guide
{"columns": ["chemical structure", "pest or weed control at 70 g/ha"],
 "data": [
  ["COC(=O)c1nc(-c2ccc3cc[nH]c3c2F)c(F)c(N)c1Cl", "60 to 74%"],
  ["COC(=O)c1nc(-c2ccc3sccc3c2)c(C)c(N)c1Cl", "0 to 29%"],
  ["COC(=O)c1nc(-c2ccc3cc[nH]c3c2F)nc(N)c1OC", "0 to 29%"]
]}

Could you share what pest or weed control at 70 g/ha was measured for Nc1c(F)c(-c2ccc3cc[nH]c3c2)nc(C(=O)O)c1Cl , tested on Key Grass and Sedge Weeds as well as Grass Crops?
75 to 84%

Could you share what pest or weed control at 70 g/ha was measured for COC(=O)c1nc(-c2ccc(Cl)c3occc23)cc(N)c1Cl , tested on Key Grass and Sedge Weeds as well as Grass Crops?
0 to 29%

Could you share what pest or weed control at 70 g/ha was measured for COC(=O)c1nc(-c2cc3occc3cc2F)c(F)c(N)c1Cl , tested on Key Grass and Sedge Weeds as well as Grass Crops?
0 to 29%

Could you share what pest or weed control at 70 g/ha was measured for COC(=O)c1nc(-c2ccc3cc[nH]c3c2F)nc(N)c1Cl , tested on Key Grass and Sedge Weeds as well as Grass Crops?
0 to 29%

Could you share what pest or weed control at 70 g/ha was measured for COC(=O)c1nc(-c2ccc3ccoc3c2F)nc(N)c1OC , tested on Key Grass and Sedge Weeds as well as Grass Crops?
85 to 94%

====

# System: Key Broadleaf Weed and Crop Species
# experiment description: Post-emergent Test II herbicidal activity (Table 15)
# Type: in vivo
# condition label: Amaranthus retroflexus, post-emergence, 336 h, redroot pigweed (Amaranthus retroflexus), 35 g ai/ha, 14 d, read-out: Visual Growth Reduction (%) 14 Days After Application, AMARE
assay readout: pest or weed control at 35 g/ha

// known answers, use as guide
{"columns": ["chemical structure", "assay system", "result"],
 "data": [
  ["COC(=O)c1nc(-c2ccc3ccsc3c2)c(F)c(N)c1Cl", "Key Broadleaf Weed and Crop Species", "60 to 74%"],
  ["COc1c(C(=O)O)nc(-c2ccc3cc[nH]c3c2F)c(F)c1N", "Key Broadleaf Weed and Crop Species", "95 to 100%"],
  ["COC(=O)c1nc(-c2ccc3ccoc3c2F)c(F)c(N)c1Cl", "Key Broadleaf Weed and Crop Species", "85 to 94%"],
  ["COC(=O)c1nc(-c2ccc(Cl)c3occc23)c(F)c(N)c1Cl", "Key Broadleaf Weed and Crop Species", "95 to 100%"],
  ["COC(=O)c1nc(-c2ccc(Cl)c3occc23)nc(N)c1Cl", "Key Broadleaf Weed and Crop Species", "95 to 100%"]
]}

Now for another entry.
Could you share which pest or weed control at 35 g/ha value was measured for COC(=O)c1nc(-c2cc3ccoc3cc2F)cc(N)c1Cl ?
95 to 100%

====

# Tested on: Key Grass and Sedge Weeds as well as Grass Crops
# experiment description: Post-emergent Test II herbicidal activity (Table 16)
# Format: in vivo
# condition label: Echinochloa crus-galli, post-emergence, 336 h, barnyardgrass (Echinochloa crus-galli), 140 g ai/ha, 14 d, read-out: Visual Growth Reduction (%) 14 Days After Application, ECHCG
Listed below: pest or weed control at 140 g/ha values for each entry.

// known answers, use as guide
{"columns": ["chemical structure", "pest or weed control at 140 g/ha"],
 "data": [
  ["Nc1c(F)c(-c2cccc3cc[nH]c23)nc(C(=O)O)c1Cl", "0 to 29%"],
  ["Nc1c(F)c(-c2ccc3occc3c2)nc(C(=O)O)c1Cl", "95 to 100%"],
  ["COC(=O)c1nc(-c2c(F)cc3cc[nH]c3c2F)cc(N)c1Cl", "0 to 29%"]
]}

Could you share which pest or weed control at 140 g/ha value was measured for COC(=O)c1nc(-c2cccc3cc[nH]c23)c(F)c(N)c1Cl ?
0 to 29%

Could you share which pest or weed control at 140 g/ha value was measured for C=Cc1c(C(=O)O)nc(-c2ccc3cc[nH]c3c2F)c(F)c1N ?
95 to 100%

====

# Test system: Key Grass and Sedge Weeds as well as Grass Crops
# experiment description: Post-emergent Test II herbicidal activity (Table 16)
# Format: in vivo
# condition label: Echinochloa crus-galli, post-emergence, 336 h, barnyardgrass (Echinochloa crus-galli), 140 g ai/ha, 14 d, read-out: Visual Growth Reduction (%) 14 Days After Application, ECHCG
Listed below: pest or weed control at 140 g/ha values for each entry.

// known answers, use as guide
{"columns": ["compound", "pest or weed control at 140 g/ha"],
 "data": [
  ["COC(=O)c1nc(-c2ccc3cc[nH]c3c2F)nc(N)c1Cl [Compound 1.31]", "85 to 94%"],
  ["COc1c(N)nc(-c2ccc3cc[nH]c3c2)nc1C(=O)O [Compound 1.33]", "0 to 29%"],
  ["COC(=O)c1nc(-c2ccc3cc[nH]c3c2F)nc(N)c1OC [Compound 1.34]", "0 to 29%"],
  ["COC(=O)c1nc(-c2ccc3cc[nH]c3c2)c(C)c(N)c1Cl [Compound 1.28]", "0 to 29%"]
]}

Now for another entry.
Could you share which pest or weed control at 140 g/ha value was measured for COC(=O)c1nc(-c2cc3occc3cc2F)nc(N)c1OC [Compound 2.14] ?
75 to 84%

====

Listed below: pest or weed control at 35 g/ha values for each entry.
# Tested on: Key Broadleaf Weed and Crop Species
# experiment description: Post-emergent Test II herbicidal activity (Table 15)
# Format: in vivo
# condition label: Amaranthus retroflexus, post-emergence, 336 h, redroot pigweed (Amaranthus retroflexus), 35 g ai/ha, 14 d, read-out: Visual Growth Reduction (%) 14 Days After Application, AMARE

// known answers, use as guide
{"columns": ["compound", "result"],
 "data": [
  ["COC(=O)c1nc(-c2ccc(Cl)c3[nH]ccc23)cc(N)c1Cl [Compound 1.44]", "85 to 94%"],
  ["COC(=O)c1nc(-c2cc3occc3cc2F)nc(N)c1OC [Compound 2.14]", "95 to 100%"],
  ["Nc1c(F)c(-c2ccc3[nH]ccc3c2)nc(C(=O)O)c1Cl [Compound 1.04]", "60 to 74%"]
]}

Could you share which pest or weed control at 35 g/ha value was measured for COC(=O)c1nc(-c2ccc(Cl)c3[nH]ccc23)c(F)c(N)c1Cl [Compound 1.43] ?
95 to 100%

Could you share which pest or weed control at 35 g/ha value was measured for COC(=O)c1nc(-c2ccc(Cl)c3ccoc23)nc(N)c1OC [Compound 2.26] ?
95 to 100%

Could you share which pest or weed control at 35 g/ha value was measured for COC(=O)c1nc(-c2cc3occc3cc2F)cc(N)c1Cl [Compound 2.12] ?
95 to 100%

Each recorded value in this set is attributed to patent US20170050957A1.
